- Test system: Bacillus subtilis
- method_notes: cleaved RNA product abundance (RNA/gDNA barcode ratio) relative to median wild-type variant (ratio to wild type); higher = more accumulation of the downstream cleavage product
- cond: experiment (reporter, strain, medium): exp 8a: truncated aprE reporter, strain BJT201 with 2% xylose (RNase J1 expressed); cleavage site: glnRA (positions -5 to +31 mutated)
Label Not satisfied if cleaved RNA product abundance falls below 0.3; label Satisfied in every other case.

Task item: Please check the record CGACATGTCCCGCTTCTTTCATTATTCCGTTAGCAACTGTTTTGTTATATACATTTACCTTTTAAGAGGAGGAAT and state if its cleaved RNA product abundance is at or above 0.3.
Reply: Satisfied

Task item: Please check the record CGACATGTCCCGCTTCTTTCATTAATCCGTTAGCAACTGTATTGATATATACATTTACCTTTTAAGAGGAGGAAT and state if its cleaved RNA product abundance is at or above 0.3.
Reply: Satisfied

Task item: Please check the record CGACATGTCCCGCTTCTTTCATTAATTCGTTAGCAACTGTTTTGCTATATACATTTACCTTTTAAGAGGAGGAAT and state if its cleaved RNA product abundance is at or above 0.3.
Reply: Satisfied

Task item: Please check the record CGACATGTCCCGCTTCTTTCATTAATCTGTTAGCAACTGTTTTGCTATATACTTTTACCTTTTAAGAGGAGGAAT and state if its cleaved RNA product abundance is at or above 0.3.
Reply: Satisfied

Task item: Please check the record CGACATGTCCCGCTTCTTTCATTAATCCGTTAGCAACTGTTTTGCAATATATATTTACCTTTTAAGAGGAGGAAT and state if its cleaved RNA product abundance is at or above 0.3.
Reply: Satisfied

Task item: Please check the record CGACATGTCCCGCTTCTTTCATTAATCCGTTAGCAACTGTTTTGTTATATACATTTAGCTTTTAAGAGGAGGAAT and state if its cleaved RNA product abundance is at or above 0.3.
Reply: Not satisfied

Task item: Please check the record CGACATGTCCCGCTTCTTTCATTAATATGTTAGCAACTGTTTTGCTATATACATTTACCTTTTAAGAGGAGGAAT and state if its cleaved RNA product abundance is at or above 0.3.
Reply: Satisfied

Task item: Please check the record CGACATGTCCCGCTTCTTTCATTAATCCGTTAGCAACTGTTTTGCAATATCCATTTACCTTTTAAGAGGAGGAAT and state if its cleaved RNA product abundance is at or above 0.3.
Reply: Not satisfied

Task item: Please check the record CGACATGTCCCGCTTCTTTCATTAATCCGTTACCAACTGTTTTGCTATATATATTTACCTTTTAAGAGGAGGAAT and state if its cleaved RNA product abundance is at or above 0.3.
Reply: Not satisfied

Task item: Please check the record CGACATGTCCCGCTTCTTTCATTAATCCGTTAGCATCTGTTTTGCTATATACATTTAACTTTTAAGAGGAGGAAT and state if its cleaved RNA product abundance is at or above 0.3.
Reply: Satisfied

Task item: Please check the record CGACATGTCCCGCTTCTTTCATTAATCCGTCAGCAACTTTTTTGCTATATACATTTACCTTTTAAGAGGAGGAAT and state if its cleaved RNA product abundance is at or above 0.3.
Reply: Satisfied

Task item: Please check the record CGACATGTCCCGCTTCTTTCATTAATCCGTTAGCAACTGTTTTGCTATATAAATTTATCTTTTAAGAGGAGGAAT and state if its cleaved RNA product abundance is at or above 0.3.
Reply: Satisfied

Task item: Please check the record CGACATGTCCCGCTTCTTTCATTAATCCGTTAGCAAGTGTTTTGCTATTTACATTTACCTTTTAAGAGGAGGAAT and state if its cleaved RNA product abundance is at or above 0.3.
Reply: Not satisfied

Task item: Please check the record CGACATGTCCCGCTTCTTTCATTATTCCGTTAGCAAATGTTGTGCTATATACATTTACCTTTTAAGAGGAGGAAT and state if its cleaved RNA product abundance is at or above 0.3.
Reply: Satisfied

Task item: Please check the record CGACATGTCCCGCTTCTTTCATTAATCCGTTAGAAACTGTTTTGCTATATTCATTTACCTTTTAAGAGGAGGAAT and state if its cleaved RNA product abundance is at or above 0.3.
Reply: Not satisfied

Task item: Please check the record CGACATGTCCCGCTTCTTTCATTAATCCGTTAGCAACTGTTTTGCTATATACATTTCCCTTTTAAGAGGAGGAAT and state if its cleaved RNA product abundance is at or above 0.3.
Reply: Satisfied

Task item: Please check the record CGACATGTCCCGCTTCTTTCATTAATCCGTTAGCAACTGTGTTGCTATATACATTTACCTTTTAAGAGGAGGAAT and state if its cleaved RNA product abundance is at or above 0.3.
Reply: Satisfied

Task item: Please check the record CGACATGTCCCGCTTCTTTCATTATTCCATTAGCAACTGTTTTGCTATATACATTTACCTTTTAAGAGGAGGAAT and state if its cleaved RNA product abundance is at or above 0.3.
Reply: Satisfied

Task item: Please check the record CGACATGTCCCGCTTCTTTCATTAATCCGTTAGCAAGTGTTTTGCTATATCCATTTACCTTTTAAGAGGAGGAAT and state if its cleaved RNA product abundance is at or above 0.3.
Reply: Not satisfied

Task item: Please check the record CGACATGTCCCGCTTCTTTCATTAATCCGTTAGCAACTTGTTTTGCTATATACATTTACCTTTTAAGAGGAGGAA and state if its cleaved RNA product abundance is at or above 0.3.
Reply: Satisfied

Task item: Please check the record CGACATGTCCCGCTTCTTTCATTAGTCAGTTAGCAACTGTTTTGCTATATACATTTACCTTTTAAGAGGAGGAAT and state if its cleaved RNA product abundance is at or above 0.3.
Reply: Not satisfied

Task item: Please check the record CGACATGTCCCGCTTCTTTCATTAATCCGTTAGCAACTGTTTTGCTATATATATTTACCTTTTAAGAGGAGGAAT and state if its cleaved RNA product abundance is at or above 0.3.
Reply: Satisfied

Task item: Please check the record CGACATGTCCCGCTTCTTTCATTAATCCGTTAGCAACTGTTTTGCTATATTAATTTACCTTTTAAGAGGAGGAAT and state if its cleaved RNA product abundance is at or above 0.3.
Reply: Not satisfied

Task item: Please check the record CGACATGTCCCGCTTCTTTCATTAATCCGTTAGCACCTGTTTTGCTATATACAGTTACCTTTTAAGAGGAGGAAT and state if its cleaved RNA product abundance is at or above 0.3.
Reply: Satisfied

Task item: Please check the record CGACATGTCCCGCTTCTTTCATTATTCCTTTACCAACAGTTTTGCTATATACATTTACCTTTTAAGAGGAGGAAT and state if its cleaved RNA product abundance is at or above 0.3.
Reply: Not satisfied

Task item: Please check the record CGACATGTCCCGCTTCTTTCATTATTCCGTGAGCAACTGTTTTGATATATACATTTACCTTTTAAGAGGAGGAAT and state if its cleaved RNA product abundance is at or above 0.3.
Reply: Satisfied

Task item: Please check the record CGACATGTCCCGCTTCTTTCATTAATCCGTTAGAAACTTTTTTGCTATATACATTTACCTTTTAAGAGGAGGAAT and state if its cleaved RNA product abundance is at or above 0.3.
Reply: Not satisfied

Task item: Please check the record CGACATGTCCCGCTTCTTTCATTAATCCGTTAGCAACTGTTTTGCTATATACTTATACCTTTTAAGAGGAGGAAT and state if its cleaved RNA product abundance is at or above 0.3.
Reply: Satisfied

Task item: Please check the record CGACATGTCCCGCTTCTTTCATTAATCCTTTAGCAACTGTATTGCTATATACATTTACCTTTTAAGAGGAGGAAT and state if its cleaved RNA product abundance is at or above 0.3.
Reply: Satisfied

Task item: Please check the record CGACATGTCCCGCTTCTTTCATTATTCGGTTAGCAACTGTTTTGCTATATACATTTACCTTTTAAGAGGAGGAAT and state if its cleaved RNA product abundance is at or above 0.3.
Reply: Satisfied

* * *

- Test system: Bacillus subtilis
- method_notes: cleaved RNA product abundance (RNA/gDNA barcode ratio) relative to median wild-type variant (ratio to wild type); higher = more accumulation of the downstream cleavage product
- cond: experiment (reporter, strain, medium): exp 4a: truncated aprE reporter, strain BJT201 with 2% xylose (RNase J1 expressed); cleavage site: cggR-gapA (positions -7 to +36 mutated)
experimental_endpoint: cleaved RNA product abundance
Keep the answer to the number alone.

Task item: Write down cleaved RNA product abundance measured for item ACAGACGAAGGAGCCGCAAAGAAGTTATTAAGGGATTAATAATCCCTCAACATAAATATCTCTCACTTATTTAAA
Reply: 0.444

Task item: Write down cleaved RNA product abundance measured for item ACAGACGAAGGAGCCGCAAAGAAGTTATTAAGGTATGAATAATCCCTCAATGTAAATATCTCTCACTTATTTAAA
Reply: 0.0511

Task item: Write down cleaved RNA product abundance measured for item ACAGACGAAGGAGCCGCAAAGAAGTTATTAAGGGACGAATAATCCCTAAATATAAATATCTCTCACTTATTTAAA
Reply: 0.287

Task item: Write down cleaved RNA product abundance measured for item ACAGACGAAGGAGCCGCAAATAAGATATTAAGGGATGAATAATCCCTCAATATAAATATCTCTCACTTATTTAAA
Reply: 1.08

Task item: Write down cleaved RNA product abundance measured for item ACAGACGAAGGAGCCGCAAAGAAGATATTAAGGGATGAAAAATCCCTCAATATAAATATCTCTCACTTATTTAAA
Reply: 0.376

Task item: Write down cleaved RNA product abundance measured for item ACAGACGAAGGAGCCGCAAAGAAGTTATTAAGGGATGAATAATCACTCAAAATAAATATCTCTCACTTATTTAAA
Reply: 0.122

Task item: Write down cleaved RNA product abundance measured for item ACAGACGAAGGAGCCGCAAAGAAGTTATGAAGGGATGAATAACCCCTCAATATAAATATCTCTCACTTATTTAAA
Reply: 0.419

Task item: Write down cleaved RNA product abundance measured for item ACAGACGAAGGAGCCGCAAAGAAGTTATTAAGGGATAAGTAATCCCTCAATATAAATATCTCTCACTTATTTAAA
Reply: 0.785

Task item: Write down cleaved RNA product abundance measured for item ACAGACGAAGGAGCCGCAAAGAAGTTATTAAGGGATAAATAATCCCTCAATATAATTATCTCTCACTTATTTAAA
Reply: 0.532

Task item: Write down cleaved RNA product abundance measured for item ACAGACGAAGGAGCCGCAAATAAGTTATTAAGGGATGAATAATCCCTCCATATAAATATCTCTCACTTATTTAAA
Reply: 0.333

Task item: Write down cleaved RNA product abundance measured for item ACAGACGAAGGAGCCGCAAAGAAGTTATTTAGGGATCAATAATCCCTCAATATAAATATCTCTCACTTATTTAAA
Reply: 0.787

Task item: Write down cleaved RNA product abundance measured for item ACAGACGAAGGAGCCGCAAAGAAGTTATTAAGGGACGAATAATCCCTCAATATAAATAGCTCTCACTTATTTAAA
Reply: 0.3

Task item: Write down cleaved RNA product abundance measured for item ACAGACGAAGGAGCCGCAAAGAAGTTACTAAGGGATGAATAATCCCTCAAAATAAATATCTCTCACTTATTTAAA
Reply: 0.288

Task item: Write down cleaved RNA product abundance measured for item ACAGACGAAGGAGCCGCAAAGAAGTTATTAAGGGATGAATAATTCCTCCATATAAATATCTCTCACTTATTTAAA
Reply: 0.119

Task item: Write down cleaved RNA product abundance measured for item ACAGACGAAGGAGCCGCAAAGAAGGAATTAAGGGATGAATAATCCCTCAATATAAATATCTCTCACTTATTTAAA
Reply: 0.353
